B1: Pistol ribozyme (parent)
chain: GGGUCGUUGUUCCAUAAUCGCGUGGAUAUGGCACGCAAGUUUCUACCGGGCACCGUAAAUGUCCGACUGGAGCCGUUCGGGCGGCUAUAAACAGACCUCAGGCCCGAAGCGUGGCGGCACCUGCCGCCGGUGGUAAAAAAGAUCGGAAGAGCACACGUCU

Variants of: B1
Assay: aptazyme ON/OFF ratio, guanine; higher = stronger switching; co-transcriptional cleavage with and without guanine
Overview of reported aptazyme ON/OFF ratio across a group of variants:
Enter a number only.

{"variant designation": "U7A U8G G9U U10C U11A C13A", "aptazyme ON/OFF ratio": 1.44}
{"variant designation": "U7A U8G G9U U10G U11A C13G", "aptazyme ON/OFF ratio": 1.25}
{"variant designation": "U7G U8G G9A U10G U11A C13G", "aptazyme ON/OFF ratio": 1.11}

Query: Field request: aptazyme ON/OFF ratio | item: G9U C13U
Result: 2.07
